Cited source: PubChem BioAssay (NCATS)

MEASURED_ON: Papain (Carica papaya) (UniProt P00784)
Sequence (P00784 whole entry, looked up): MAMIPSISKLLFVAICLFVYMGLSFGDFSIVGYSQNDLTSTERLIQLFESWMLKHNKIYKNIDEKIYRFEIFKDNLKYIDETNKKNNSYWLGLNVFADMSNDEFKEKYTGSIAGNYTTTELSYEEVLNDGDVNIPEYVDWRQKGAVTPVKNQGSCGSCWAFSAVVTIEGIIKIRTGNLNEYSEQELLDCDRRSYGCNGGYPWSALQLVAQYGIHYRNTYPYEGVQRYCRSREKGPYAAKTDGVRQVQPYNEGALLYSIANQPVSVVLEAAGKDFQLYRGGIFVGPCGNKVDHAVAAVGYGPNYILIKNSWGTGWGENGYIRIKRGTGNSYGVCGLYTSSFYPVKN
EXPERIMENT: Primary qHTS assay for inhibitors of the protease papain (AID 1645873);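 also: papain turnover of Z-FR-AMC read as the AMC fluorescence gain over 10 min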
TEST_CONDITIONS: papain Z-FR-AMC cleavage, AMC fluorescence; series mostly up to 49.8 µM
Records with an inconclusive call do not appear. Activity calls are given as the source filed them. Calls follow the shape of the dose curve; as a rule, active = well fitted inhibition curve with a large enough effect; inconclusive = small, poorly fitted or top-dose-only effect; inactive = no such curve, though single readings can be large or run the other way.
Outcome (select one): active, inactive

# example entries with known answers
Prompt line: Outcome? CC(O)C(O)[C@H]1CNc2nc(N)[nH]c(=O)c2N1 (some centres not stated)
Response line: active

Prompt line: Ok, now N=S(=O)(O)Cc1noc2ccccc12
Response line: inactive

Prompt line: Ok, now CNc1cc(NS(=O)(=O)c2ccc(N)cc2)nc(NC)n1
Response line: inactive

***
Prompt line: Outcome? CN1C2CCC1CC(OC(c1ccccc1)c1ccccc1)C2 (configuration not stated)
Response line: inactive

Prompt line: Ok, now CC[N+](CC)(CC)CC(=O)Nc1c(C)cccc1C
Response line: inactive

Prompt line: Ok, now O=C(O)C1=CCNCC1
Response line: inactive

Prompt line: Ok, now CCCCCCCCCCCCCCCCCCOC[C@H](COP(=O)([O-])OCC[N+](C)(C)C)OC
Response line: inactive

Prompt line: Ok, now CC(C)(CO)Cc1cc(C(C)(C)C)c(O)c(C(C)(C)C)c1
Response line: inactive

Prompt line: Ok, now O=C(O)/C=C/c1cnc[nH]1
Response line: inactive

Prompt line: Ok, now CC(=O)O[C@H]1Cc2ccccc2N(C(N)=O)c2ccccc21
Response line: inactive

Prompt line: Ok, now Nc1nc2c(nc(Br)n2C2OC3COP(=O)(O)O[C@@H]3C2O)c(=O)[nH]1 (some centres not stated)
Response line: inactive

Prompt line: Ok, now Cn1c(=O)c2[nH]c(-c3ccc(S(=O)(=O)O)cc3)nc2n(C)c1=O
Response line: active
